These data points were gathered from patent US11472838B2.

Assay comment: in vitro
*1 amine or outer side, *2 acyl side, *3 side chain or, on linkers, in order; H or OH if unused. Where a SMILES comes first, the peptide text is derived from it. [ ]: non-standard residue; d: D form. The star is where a group is joined. Benzoyl(3-COOH,5-NO2) = O=C(O)c1cc(C(=O)*)cc([N+](=O)[O-])c1; Benzoyl(2-COOH-4,5-Cl2) = O=C(O)c1cc(Cl)c(Cl)cc1C(=O)*; Nle(5E-ene,6-CO2Et) = CCOC(=O)/C=C/CC[C@H](N)C(=O)O; X1 = COC(=O)/C=C/CC[C@H](N[*:1])C(=O)[*:2]; Pro(4-oxo) = O=C1CN[C@H](C(=O)O)C1; Chg = N[C@H](C(=O)O)C1CCCCC1; Tle = CC(C)(C)[C@H](N)C(=O)O; X4 = O=C(O)c1cncc(C(=O)*)c1; NHIsopentyl = CC(C)CCN*
Property: recovery at 2 h

Indicate its recorded recovery at 2 h; the compound in question is CCOC(=O)/C=C/CC[C@H](NC(=O)c1cc(C(=O)O)cc([N+](=O)[O-])c1)C(=O)N[C@H](C(=O)N1CC(=O)C[C@H]1C(=O)N[C@H](C(=O)NCCC(C)C)C1CCCCC1)C(C)(C)C [Compound 40] ({Benzoyl(3-COOH,5-NO2)}-[Nle(5E-ene,6-CO2Et)][Tle][Pro(4-oxo)][Chg]-NHIsopentyl) > 75%

Indicate its recorded recovery at 2 h; the compound in question is COC(=O)/C=C/CC[C@H](NC(=O)c1cncc(C(=O)O)c1)C(=O)N[C@H](C(=O)N1CCC[C@H]1C(=O)N[C@H](C(=O)N[C@H](C(N)=O)C1CCCCC1)C1CCCCC1)C(C)(C)C [Compound 27] (X4-[X1][Tle]P[Chg][Chg]-NH2) > 75%

Indicate its recorded recovery at 2 h; the compound in question is CCOC(=O)/C=C/CC[C@H](NC(=O)c1cc(Cl)c(Cl)cc1C(=O)O)C(=O)N[C@H](C(=O)N1CCC[C@H]1C(=O)N[C@@H](CC(C)C)C(=O)N[C@H](C(N)=O)C1CCCCC1)C(C)C [Compound 38] ({Benzoyl(2-COOH-4,5-Cl2)}-[Nle(5E-ene,6-CO2Et)]VPL[Chg]-NH2) > 75%
